Test system: CASKI
Assay: Confirmatory qHTS for gynecologic anti-cancer compounds from libraries of approved drugs and bioactive compounds; also: nearly all actives have a fitted effect of over 55% in size; also: potency is read from the fitted curve at half-maximal effect
Details: gynecologic cancer cell panel viability, ATPlite luminescence, 48 h; series mostly up to 57.6 µM
Inconclusive results are not listed. Calls of active or inactive are those of the source. Calls follow the shape of the dose curve; as a rule, active = well fitted cell-killing curve with a large enough effect; inconclusive = small, poorly fitted or top-dose-only effect, or effect the other way; inactive = no such curve, though single readings can be large or run the other way.
parameter measured: Potency

Answered cases to consult:
{"substance smiles": "COc1cc2nccc(Oc3ccc(NC(=O)Nc4cc(C)on4)c(Cl)c3)c2cc1OC", "Potency": "27.3 µM (active)"}
{"substance smiles": "Cc1cncc2cccc(S(=O)(=O)N3CCCN(C(=O)CN)C[C@@H]3C)c12", "Potency": "inactive"}
{"substance smiles": "CC[C@H](CC#N)OC(=O)N[C@@H](C)c1cccc(NC(=O)Nc2ccc(-c3cnco3)c(OC)c2)c1", "Potency": "inactive"}
{"substance smiles": "CC(C)[C@@H](CS(=O)(=O)C(C)C)N1C(=O)[C@@](C)(CC(=O)O)C[C@H](c2cccc(Cl)c2)[C@H]1c1ccc(Cl)cc1", "Potency": "inactive"}

# batch: return Potency for each of the 5 compounds below
1. COC(=O)c1ccc2c(C(=Nc3ccc(N(C)C(=O)CN4CCN(C)CC4)cc3)c3ccccc3)c(O)[nH]c2c1
2. COc1cccc2c1C(=O)c1c(O)c3c(c(O)c1C2=O)C[C@@](O)(C(=O)CO)C[C@@H]3O[C@H]1C[C@H](N)[C@H](O)[C@H](C)O1
3. COCCOc1nc(-c2ccc(Cl)c(Cl)c2)n(-c2ccc(NC(=O)CCl)cc2)n1
4. CCc1c2c(nc3ccc(OC(=O)N4CCC(N5CCCCC5)CC4)cc13)-c1cc3c(c(=O)n1C2)COC(=O)[C@]3(O)CC
5. O=C(NOCC1CC1)c1ccc(F)c(F)c1Nc1ccc(I)cc1Cl

Reply:
inactive
8.63 µM (active)
inactive
19.3 µM (active)
21.7 µM (active)
